Target: MALT1 (Homo sapiens (Human))
Sequence (Q9UDY8 whole entry): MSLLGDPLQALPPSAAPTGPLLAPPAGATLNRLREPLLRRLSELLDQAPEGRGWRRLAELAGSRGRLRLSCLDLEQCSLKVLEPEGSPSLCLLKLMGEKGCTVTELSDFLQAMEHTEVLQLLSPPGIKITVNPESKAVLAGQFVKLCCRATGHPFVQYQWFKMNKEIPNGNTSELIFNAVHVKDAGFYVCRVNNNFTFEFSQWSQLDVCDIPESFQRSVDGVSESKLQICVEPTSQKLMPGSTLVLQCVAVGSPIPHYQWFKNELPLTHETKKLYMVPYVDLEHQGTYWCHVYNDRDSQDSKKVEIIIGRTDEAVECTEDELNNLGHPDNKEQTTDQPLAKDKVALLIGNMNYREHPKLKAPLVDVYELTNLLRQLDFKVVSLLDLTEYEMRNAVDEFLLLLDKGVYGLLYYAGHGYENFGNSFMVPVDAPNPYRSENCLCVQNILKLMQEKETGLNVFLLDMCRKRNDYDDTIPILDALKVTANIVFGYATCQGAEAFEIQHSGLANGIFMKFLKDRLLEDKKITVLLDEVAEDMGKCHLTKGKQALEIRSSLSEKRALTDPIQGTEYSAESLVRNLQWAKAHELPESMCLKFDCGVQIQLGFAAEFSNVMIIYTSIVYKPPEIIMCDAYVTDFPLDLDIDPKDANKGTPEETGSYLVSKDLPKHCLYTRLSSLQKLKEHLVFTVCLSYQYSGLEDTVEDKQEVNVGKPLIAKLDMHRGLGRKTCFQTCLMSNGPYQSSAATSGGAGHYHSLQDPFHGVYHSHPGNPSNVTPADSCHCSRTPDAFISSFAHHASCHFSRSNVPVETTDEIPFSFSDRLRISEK
Experiment: MALT1 enzymatic activity inhibition (fluorescence, Ac-LRSR-AMC substrate)
Format: biochemical
Settings: recombinant MALT1 1.5 ng/μl, Ac-LRSR-AMC 1 μM

{"compound": "O=C1CCC(N2Cc3cc(N4CCN(C(=O)CCCCc5nc(-c6ncc(NC(=O)Nc7cnc8ccnn8c7C7CCCC7)cc6F)no5)CC4)ccc3C2=O)C(=O)N1 (centres unmarked)", "EC50": "0.2 to 0.5 µM"}
{"compound": "O=C(CCOCCN1CCN(c2ccc3c(c2)CN(C2CCC(=O)NC2=O)C3=O)CC1)NCCOc1ncc(Cl)cc1NC(=O)Nc1cn2ccnc2nc1C1CCCCC1 (centres unmarked)", "EC50": "1 to 5 µM"}
{"compound": "O=C(CCOCCOCCN1CCN(c2ccc3c(c2)CN(C2CCC(=O)NC2=O)C3=O)CC1)NCCOc1ncc(Cl)cc1NC(=O)Nc1cnc2ccnn2c1C1CCOCC1 (centres unmarked)", "EC50": "0.5 to 1 µM"}
{"compound": "Cc1cc(NC(=O)Nc2cnc3ccnn3c2C2CCCCC2)cnc1-c1noc(CCCCN2CCN(c3ccc4c(c3)CN(C3CCC(=O)NC3=O)C4=O)CC2)n1 (centres unmarked)", "EC50": "0.2 to 0.5 µM"}
{"compound": "Cc1nn(CCCCC(=O)N2CCN(c3ccc4c(c3)CN(C3CCC(=O)NC3=O)C4=O)CC2)cc1NC(=O)Nc1cnc2ccnn2c1C(C)C (centres unmarked)", "EC50": "> 5 µM"}
{"compound": "Cc1cc2ncc(NC(=O)Nc3cnc(-c4noc(CCCCC(=O)N5CCN(c6ccc7c(c6)CN(C6CCC(=O)NC6=O)C7=O)CC5)n4)c(C)c3)c(C3CCCO3)n2n1 (centres unmarked)", "EC50": "≤ 0.2 µM"}
{"compound": "Cc1cc(NC(=O)Nc2cnc3ccnn3c2C2CCC2)cnc1-c1noc(CCCCCC(=O)N2CCN(c3ccc4c(c3)CN(C3CCC(=O)NC3=O)C4=O)CC2)n1 (centres unmarked)", "EC50": "≤ 0.2 µM"}
{"compound": "Cc1cc(NC(=O)Nc2cnc3ccnn3c2C(C)C)cnc1-c1noc(CCCCC(=O)N2CCN(c3ccc4c(c3)CN(C3CCC(=O)N(C)C3=O)C4=O)CC2)n1 (centres unmarked)", "EC50": "≤ 0.2 µM"}
{"compound": "Cc1cc(NC(=O)Nc2cnc3ccnn3c2C2CCCC2)cnc1-c1noc(CC(C)(C)CC(=O)N2CCN(c3ccc4c(c3)CN(C3CCC(=O)NC3=O)C4=O)CC2)n1 (centres unmarked)", "EC50": "0.2 to 0.5 µM"}
{"compound": "O=C1CCC(N2Cc3cc(N4CCN(C(=O)CCCc5nc(-c6ncc(NC(=O)Nc7cnc8ccnn8c7C7CCCCC7)cc6Cl)no5)CC4)ccc3C2=O)C(=O)N1 (centres unmarked)", "EC50": "≤ 0.2 µM"}
{"compound": "Cc1cc(NC(=O)Nc2cnc3ccnn3c2C2CCCC2)cnc1-c1noc(CCCCCCN2CCN(c3ccc4c(c3)CN(C3CCC(=O)NC3=O)C4=O)CC2)n1 (centres unmarked)", "EC50": "≤ 0.2 µM"}

---

Biological target: MALT1 (Homo sapiens (Human))
Assay: MALT1 enzymatic activity inhibition (fluorescence, Ac-LRSR-AMC substrate)
Assay type: biochemical
Settings: recombinant MALT1 1.5 ng/μl, Ac-LRSR-AMC 1 μM
Reported EC50 values are given for each entry in this list.

{"compound": "O=C1CCC(N2Cc3cc(N4CCN(C(=O)CCCCn5cc(NC(=O)Nc6cnc7ccnn7c6C6CCCO6)c(C(F)(F)F)n5)CC4)ccc3C2=O)C(=O)N1 (stereo not drawn)", "EC50": "> 5 µM"}
{"compound": "Cc1cc(NC(=O)Nc2cnc3ccnn3c2C2CCCCC2)cnc1-c1noc(CCCC(=O)Nc2ccc3c(c2)CN(C2CCC(=O)NC2=O)C3=O)n1 (stereo not drawn)", "EC50": "≤ 0.2 µM"}
{"compound": "Cc1cc(NC(=O)Nc2cnc3ccnn3c2C(C)C)cnc1-c1noc(CCCCCC(=O)N2CCN(c3ccc4c(c3)CN(C3CCC(=O)N(COC(=O)C(C)(C)C)C3=O)C4=O)CC2)n1 (stereo not drawn)", "EC50": "≤ 0.2 µM"}
